assayTarget: ASH1L (Homo sapiens, UniProt Q9NR48)
procedureSummary: Epigenetic enzyme assay, Methyltransferases (MTs)
Assay type: biochemical
testSettings: read-out: Reference IC50
recordedEndpoint: pIC50
Quick note: pIC50 means taking -log10 of the concentration in moles per liter.

pIC50 for Nc1ncnc2c1ncn2[C@@H]1O[C@H](CSCC[C@H](N)C(=O)O)[C@@H](O)[C@H]1O [SAH] ?
5.04

---

inhibition at 1 µM values, listed per item
assayTarget: CYP3A (Homo sapiens)
Sequence (P08684 2-503): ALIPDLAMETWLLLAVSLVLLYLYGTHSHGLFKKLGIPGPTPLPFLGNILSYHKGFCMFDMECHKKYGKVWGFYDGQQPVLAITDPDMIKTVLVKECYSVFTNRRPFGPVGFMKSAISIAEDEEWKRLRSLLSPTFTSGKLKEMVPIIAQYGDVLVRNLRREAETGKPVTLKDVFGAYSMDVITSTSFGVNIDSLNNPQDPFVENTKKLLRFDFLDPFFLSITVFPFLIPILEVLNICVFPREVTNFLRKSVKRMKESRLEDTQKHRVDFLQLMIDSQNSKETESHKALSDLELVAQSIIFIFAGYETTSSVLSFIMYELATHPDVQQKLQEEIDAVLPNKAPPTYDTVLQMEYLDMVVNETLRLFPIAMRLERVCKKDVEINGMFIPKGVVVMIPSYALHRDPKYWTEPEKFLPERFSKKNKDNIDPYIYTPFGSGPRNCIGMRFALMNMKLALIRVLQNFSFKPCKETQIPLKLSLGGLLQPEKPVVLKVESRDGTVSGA
procedureSummary: Cytochrome P450 Inhibition (CYP panel)
Assay type: in vitro ADME
testSettings: human liver microsomes, probe testosterone, CYP3A (testosterone sub.), Human liver microsomes, 1 μM, read-out: % Inhibition of Control Values
State the answer as a number, implicitly in %.

// below: answered compounds
compound | assayTarget | valueUnit | inhibition at 1 µM
CC(C)=CCC[C@H](C)[C@@H]1CC[C@@H](C)c2c1cc(C)c(O)c2O [Compound 4, 7,8-dihydroxyserrulat-14-ene] | CYP3A (Homo sapiens) | % | 20
CC(C)=CCC[C@@H]1C(O)Oc2c(C)cc(O)c3c2[C@H]1CC[C@H]3C (stereo partly drawn) | CYP3A (Homo sapiens) | % | 17

Returns the measured inhibition at 1 µM for the input compound. Input: CC(C)=CCC[C@H](CO)[C@@H]1CC[C@@H](C)c2c1cc(C)c(O)c2O [Compound 1, 7,8,18-trihydroxyserrulat-14-ene]
7

Cited source: patent US11331299B2
